Entry source: patent US20210238260

Reported kcat values follow for various proteins
Biological target: Factor X, P00742
Sequence (P00742 whole entry, looked up): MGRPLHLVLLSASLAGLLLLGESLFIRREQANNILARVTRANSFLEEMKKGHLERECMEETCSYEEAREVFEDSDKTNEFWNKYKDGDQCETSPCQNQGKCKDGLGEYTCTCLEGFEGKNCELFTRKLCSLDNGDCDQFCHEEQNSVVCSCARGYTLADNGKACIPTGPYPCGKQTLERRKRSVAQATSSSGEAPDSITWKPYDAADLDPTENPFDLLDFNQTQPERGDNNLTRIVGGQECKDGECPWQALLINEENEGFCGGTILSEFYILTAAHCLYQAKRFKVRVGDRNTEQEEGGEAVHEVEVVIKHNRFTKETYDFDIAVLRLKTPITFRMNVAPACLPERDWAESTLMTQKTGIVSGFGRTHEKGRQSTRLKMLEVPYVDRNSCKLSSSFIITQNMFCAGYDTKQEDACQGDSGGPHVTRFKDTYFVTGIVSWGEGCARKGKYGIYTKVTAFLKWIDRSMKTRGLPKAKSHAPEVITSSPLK
Kindly provide the numeric value in s⁻¹ only, without the unit symbol.

FIXa-Y155F/K228N/K247N/N249S (protein) chain 1: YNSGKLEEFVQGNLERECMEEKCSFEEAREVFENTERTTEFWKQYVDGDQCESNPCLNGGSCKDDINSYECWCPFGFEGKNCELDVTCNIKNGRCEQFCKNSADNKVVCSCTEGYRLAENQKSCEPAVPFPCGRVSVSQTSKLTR chain 2: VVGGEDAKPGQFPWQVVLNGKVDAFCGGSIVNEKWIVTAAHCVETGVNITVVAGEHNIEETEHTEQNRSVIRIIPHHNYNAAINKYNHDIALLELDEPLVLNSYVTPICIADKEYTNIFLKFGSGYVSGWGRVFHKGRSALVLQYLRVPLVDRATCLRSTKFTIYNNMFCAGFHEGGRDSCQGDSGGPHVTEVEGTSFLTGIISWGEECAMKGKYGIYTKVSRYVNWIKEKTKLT: 4.3

Query: Give kcat for the following protein: FIXa-Y155F/K247N/N249S/N260S (protein) chain 1: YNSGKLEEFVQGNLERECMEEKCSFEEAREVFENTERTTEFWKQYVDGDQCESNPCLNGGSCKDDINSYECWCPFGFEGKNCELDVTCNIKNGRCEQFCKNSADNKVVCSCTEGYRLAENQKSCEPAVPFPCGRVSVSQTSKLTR chain 2: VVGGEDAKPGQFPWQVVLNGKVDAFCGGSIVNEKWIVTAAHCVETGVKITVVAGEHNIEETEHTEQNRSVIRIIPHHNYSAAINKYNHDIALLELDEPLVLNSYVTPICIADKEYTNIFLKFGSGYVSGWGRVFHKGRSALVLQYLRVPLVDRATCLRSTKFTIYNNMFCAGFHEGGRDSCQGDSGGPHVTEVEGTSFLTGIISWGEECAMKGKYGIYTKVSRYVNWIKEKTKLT
Reply: 1.8

Query: Give kcat for the following protein: FIXa-Y155F/K247N/N249S/R338E/T343R/R403E/E410N (protein) chain 1: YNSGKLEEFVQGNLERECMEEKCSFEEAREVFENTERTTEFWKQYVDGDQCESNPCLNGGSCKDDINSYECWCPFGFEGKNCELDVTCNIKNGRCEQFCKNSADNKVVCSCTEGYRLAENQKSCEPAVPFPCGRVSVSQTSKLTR chain 2: VVGGEDAKPGQFPWQVVLNGKVDAFCGGSIVNEKWIVTAAHCVETGVKITVVAGEHNIEETEHTEQNRSVIRIIPHHNYNAAINKYNHDIALLELDEPLVLNSYVTPICIADKEYTNIFLKFGSGYVSGWGRVFHKGRSALVLQYLRVPLVDRATCLESTKFRIYNNMFCAGFHEGGRDSCQGDSGGPHVTEVEGTSFLTGIISWGEECAMKGKYGIYTKVSEYVNWIKNKTKLT
Reply: 9.8
